- targetDesc: T1, MET928 (cMET protein derived from construct 25-928) (human, UniProt P08581 25-928)
- T1 construct: MET ectodomain, residues 1-24 are the leader; produced in Lec 8 cells; background text says the ectodomain is furin-cleaved into alpha (25-307) and beta chains; biotinylated form used in selections; also called MET928 extracellular domain; Met extracellular domain
- T1 sequence (P08581 25-928): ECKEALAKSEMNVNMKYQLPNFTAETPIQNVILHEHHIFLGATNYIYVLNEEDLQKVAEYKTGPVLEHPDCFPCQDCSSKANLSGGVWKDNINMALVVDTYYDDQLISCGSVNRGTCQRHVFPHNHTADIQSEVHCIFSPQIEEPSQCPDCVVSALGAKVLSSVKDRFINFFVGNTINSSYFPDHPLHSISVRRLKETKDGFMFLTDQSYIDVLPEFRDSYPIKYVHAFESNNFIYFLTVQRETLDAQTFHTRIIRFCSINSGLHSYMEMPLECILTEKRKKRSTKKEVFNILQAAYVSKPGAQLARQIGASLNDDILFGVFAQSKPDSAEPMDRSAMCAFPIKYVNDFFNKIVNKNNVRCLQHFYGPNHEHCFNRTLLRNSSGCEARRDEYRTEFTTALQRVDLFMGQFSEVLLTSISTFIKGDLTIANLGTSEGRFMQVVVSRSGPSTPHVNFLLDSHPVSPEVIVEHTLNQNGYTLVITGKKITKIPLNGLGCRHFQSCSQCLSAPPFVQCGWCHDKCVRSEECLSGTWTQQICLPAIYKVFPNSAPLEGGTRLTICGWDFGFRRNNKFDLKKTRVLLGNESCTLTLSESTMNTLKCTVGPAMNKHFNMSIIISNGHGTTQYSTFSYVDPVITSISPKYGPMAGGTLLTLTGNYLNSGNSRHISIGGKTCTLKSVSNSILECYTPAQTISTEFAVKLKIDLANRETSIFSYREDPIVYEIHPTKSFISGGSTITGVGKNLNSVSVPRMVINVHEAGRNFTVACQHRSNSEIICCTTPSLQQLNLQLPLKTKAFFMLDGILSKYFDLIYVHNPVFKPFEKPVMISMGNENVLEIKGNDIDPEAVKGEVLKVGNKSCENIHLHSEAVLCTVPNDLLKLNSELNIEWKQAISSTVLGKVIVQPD
- testDescription: Biacore SPR, MET-928 on chip, Fab format

binder | outputUnit | koff
110_A01 Fab (His/tri-FLAG tagged, hinged) (Fab, V domains shown, Fab from pBIOCAM7-3F, hinged, hexahistidine and tri-FLAG tags on the heavy chain) VH: QMQLVQSGAEVKKPGAPVKVSCKVSGYTFTDYYMHWVQQAPGKGLEWMGLVDPEDGETIYAEKFQGRVTITADTSTDTAYMELSSLRSEDTAVYYCATDATTPYWFPYLWGQGTLVTVSS VL: DIQMTQSPSSLSASVGDRVTITCQASQDISNYLNWYQQKPGRAPKVLIYDASNLETGVPSRFSGSGSGTEFTLTISNLRPDDFATYYCQQGDSFPLTFGGGTKVEIK | s⁻¹ | 0.00137
107_A08 Fab (His/tri-FLAG tagged, hinged) (Fab, V domains shown, Fab from pBIOCAM7-3F, hinged, hexahistidine and tri-FLAG tags on the heavy chain) VH: QMQLVQSGAEVKKPGAPVKVSCKVSGYTFTDYYMHWVQQAPGKGLEWMGLVDPEDGETIYAEKFQGRVTITADTSTDTAYMELSSLRSEDTAVYYCATDATTPYWGMVEWGQGTLVTVSS VL: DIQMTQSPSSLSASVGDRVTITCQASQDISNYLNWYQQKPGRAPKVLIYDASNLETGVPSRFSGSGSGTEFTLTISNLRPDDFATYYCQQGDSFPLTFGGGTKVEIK | s⁻¹ | 0.00192
110_A10 Fab (His/tri-FLAG tagged, hinged) (Fab, V domains shown, Fab from pBIOCAM7-3F, hinged, hexahistidine and tri-FLAG tags on the heavy chain) VH: QMQLVQSGAEVKKPGAPVKVSCKVSGYTFTDYYMHWVQQAPGKGLEWMGLVDPEDGETIYAEKFQGRVTITADTSTDTAYMELSSLRSEDTAVYYCATDATTPYWGMQTWGQGTLVTVSS VL: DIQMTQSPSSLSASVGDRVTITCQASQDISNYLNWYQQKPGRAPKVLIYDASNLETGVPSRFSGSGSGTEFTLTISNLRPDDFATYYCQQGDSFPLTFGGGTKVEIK | s⁻¹ | 0.00168
110_A12 Fab (His/tri-FLAG tagged, hinged) (Fab, V domains shown, Fab from pBIOCAM7-3F, hinged, hexahistidine and tri-FLAG tags on the heavy chain) VH: QMQLVQSGAEVKKPGAPVKVSCKVSGYTFTDYYMHWVQQAPGKGLEWMGLVDPEDGETIYAEKFQGRVTITADTSTDTAYMELSSLRSEDTAVYYCATDATTPYWFPREWGQGTLVTVSS VL: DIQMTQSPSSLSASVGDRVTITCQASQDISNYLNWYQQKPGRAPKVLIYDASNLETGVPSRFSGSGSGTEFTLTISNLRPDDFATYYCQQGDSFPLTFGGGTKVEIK | s⁻¹ | 0.00161
111_D06 Fab (His/tri-FLAG tagged, hinged) (Fab, V domains shown, Fab from pBIOCAM7-3F, hinged, hexahistidine and tri-FLAG tags on the heavy chain) VH: QMQLVQSGAEVKKPGAPVKVSCKVSGYTFTDYYMHWVQQAPGKGLEWMGLVDPEDGETIYAEKFQGRVTITADTSTDTAYMELSSLRSEDTAVYYCATDATTPYWGMWQWGQGTLVTVSS VL: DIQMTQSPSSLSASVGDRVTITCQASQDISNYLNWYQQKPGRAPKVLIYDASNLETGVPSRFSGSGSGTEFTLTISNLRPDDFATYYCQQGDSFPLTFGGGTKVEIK | s⁻¹ | 0.00197
